Tested on: HEK-293T
Assay: Multiplex assay against HEK293T
Type: toxicity, cell-based
Conditions: human, 12 h, 10 µM, compound concentration 10 uM, replicate 1
So basically: Population Mitochondria Different-Phenotype (%) at 90% or higher? That is Met. Lower than 90%? That is Not met.

(Q) Check the entry "Cc1cn(-c2cc(NC(=O)c3ccc4c(c3)CN(c3cncnc3)C[C@@H]4C)cc(C(F)(F)F)c2)cn1" : does Population Mitochondria Different-Phenotype (%) equal or exceed 90%?
(A) Not met

(Q) Item "COc1cc2c(Nc3ccc(NC(=O)c4ccccc4)cc3)ncnc2cc1OCCCN1CCOCC1" with Population Mitochondria Different-Phenotype (%) of 90% or above?
(A) Not met

(Q) Hi, just wondering whether "CCCn1c(=O)c2[nH]c(C34CC5CC(CC3C5)C4)nc2n(CCC)c1=O" shows Population Mitochondria Different-Phenotype (%) of 90% or higher.
(A) Met

(Q) Tell me whether Population Mitochondria Different-Phenotype (%) is at least 90% here: "COc1ccc(NS(=O)(=O)c2sc3ccc(Cl)cc3c2C)cc1N1CCNCC1.Cl"
(A) Met
